# measurement.target: human C5 protein (human, UniProt P01031 19-673; P01031 678-1676)
# method.notes: cell-based or functional assay
Positions of bridges follow the written chain, without caps; N, C: chain ends. Non-standard residues stand in square brackets, D forms with d. Primed or numbered codes have the meaning given here. No end group written: not given here. mXylyl(3) = bridging moiety between the two residues given in brackets; mXylyl″ = bridging moiety between the two marked residues; Trp(7-aza) = N[C@@H](Cc1c[nH]c2ncccc12)C(=O)O; Phg = N[C@H](C(=O)O)c1ccccc1; Nva = CCC[C@H](N)C(=O)O
Field: Avg. IC50, human hemolysis assay. Provide a value for each of the binders that follow.
Numbers only, in nM.

{"binder": "Ac-[Nva]C[Phg]T[Trp(7-aza)]EYPHC[Nva]-NH2 (linker 2-10 via mXylyl(3)) [R3102]", "property.name": "Avg. IC50, human hemolysis assay", "u": "nM", "data.value": 978}

Now, please, on to the next binder.
Note down Avg. IC50, human hemolysis assay recorded for MCSERYCEVRWEY-NH2 (linker 2-7 via mXylyl″) [R3020]
24.6

Entry source: patent US20210283212A1
